experiment: mn = molality of the nth substance listed, in mol/kg; details: 298.15 K; 101.3 kPa; Liquid; Vibrating tube method; m2 = 0
measured_attribute: mass density (kg/m3)

{"molecule": "C[S+](C)[O-] [dimethyl sulfoxide] + CCCCCCCCn1cc[n+](C)c1.[Br-]", "unit_symbol": "kg/m3", "numeric_result": 1095.33}
{"molecule": "C[S+](C)[O-] [dimethyl sulfoxide] + CCCCCCCCCCn1cc[n+](C)c1.[Br-]", "unit_symbol": "kg/m3", "numeric_result": 1095.33}
{"molecule": "CN(C)C=O [dimethylformamide] + CCCCCCCCCCn1cc[n+](C)c1.[Br-]", "unit_symbol": "kg/m3", "numeric_result": 944.305}
{"molecule": "CN(C)C=O [dimethylformamide] + CCCCCCCCCCCCn1cc[n+](C)c1.[Br-]", "unit_symbol": "kg/m3", "numeric_result": 944.305}
{"molecule": "C[S+](C)[O-] [dimethyl sulfoxide] + CCCCCCCCCCCCn1cc[n+](C)c1.[Br-]", "unit_symbol": "kg/m3", "numeric_result": 1095.35}
{"molecule": "CN(C)C=O [dimethylformamide] + CCCCCCCCn1cc[n+](C)c1.[Br-]", "unit_symbol": "kg/m3", "numeric_result": 944.305}
